target: native Aβ aggregates in human AD brain tissue sections (Homo sapiens, UniProt P05067); construct: native Aβ aggregates in human AD brain tissue samples; from tissue; host or cells: human AD brain tissue sections; assay: Aβ in vitro displacement assay (selectivity counterscreen, [3H]Example 3 autoradiography); type: binding; settings: 1 μM compound; 3 nM [3H]Example 3; human AD brain sections; read-out: sel. counterscreen PCT_INHIB AD @ 1 μM (% displacement of [3H]Example 3)
Sequence (P05067 672-713 limits assumed): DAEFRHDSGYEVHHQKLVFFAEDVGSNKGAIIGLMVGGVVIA
Each item that follows carries a reported inhibition at 1 µM.
Value kind: inhibition at 1 µM (%)

Smi: COc1ccc(C(=O)Nc2ccc(N3CCN(c4ccc(S(C)(=O)=O)cc4)CC3)cc2)cc1
Tested system: native Aβ aggregates in human AD brain tissue sections (Homo sapiens, UniProt P05067)
Reading unit: %
Observed result: 92

Smi: COc1ccc(C(=O)Nc2ccc(N3CCN(c4ccccn4)CC3)cn2)cc1
Tested system: native Aβ aggregates in human AD brain tissue sections (Homo sapiens, UniProt P05067)
Reading unit: %
Observed result: 99

Smi: CN(C)c1ccc(C(=O)Nc2cnc(N3CCN(c4ccccn4)CC3)cn2)cc1
Tested system: native Aβ aggregates in human AD brain tissue sections (Homo sapiens, UniProt P05067)
Reading unit: %
Observed result: 100

Smi: COc1ccc(C(=O)Nc2ccc(N3CCN(c4ncncn4)CC3)cc2)cc1
Tested system: native Aβ aggregates in human AD brain tissue sections (Homo sapiens, UniProt P05067)
Reading unit: %
Observed result: 95

Smi: COc1ccc(C(=O)Nc2ccc(N3CCN(c4ccc(F)cn4)CC3)cc2)cc1
Tested system: native Aβ aggregates in human AD brain tissue sections (Homo sapiens, UniProt P05067)
Reading unit: %
Observed result: 94

Smi: COc1ccc(C(=O)Nc2ccc(N3CCN(c4ccc(C#N)c(OC)c4)CC3)cc2)cc1
Tested system: native Aβ aggregates in human AD brain tissue sections (Homo sapiens, UniProt P05067)
Reading unit: %
Observed result: 93

Smi: O=C(Nc1ccc(N2CCN(c3nccs3)CC2)cc1)c1ccc(OCCF)cc1
Tested system: native Aβ aggregates in human AD brain tissue sections (Homo sapiens, UniProt P05067)
Reading unit: %
Observed result: 89

* * *

Listing of recorded inhibition at 1 µM by entry.
biological target: native Aβ aggregates in human AD brain tissue sections (Homo sapiens); construct: native Aβ aggregates in human AD brain tissue samples; from tissue; host or cells: human AD brain tissue sections; test: Aβ in vitro displacement assay (selectivity counterscreen, [3H]Example 3 autoradiography); format: binding; conditions: 1 μM compound; 3 nM [3H]Example 3; human AD brain sections; read-out: sel. counterscreen PCT_INHIB AD @ 1 μM (% displacement of [3H]Example 3)
Value kind: inhibition at 1 µM (%)

Compound: O=C(Nc1ccc(N2CCN(c3ccccn3)CC2)cc1)c1ccc(OCC(O)CF)cc1 (racemic)
Reading unit: %
Observed result: 92
//
Compound: O=C(Nc1ccc(N2CCN(c3ccccn3)CC2)cc1)c1ccc(OCCOCCO)cc1
Reading unit: %
Observed result: 92
//
Compound: COc1ccc(C(=O)Nc2ccc(N3CCN(c4ccccn4)CC3)nn2)c(F)c1
Reading unit: %
Observed result: 92
//
Compound: COc1ccc(C(=O)Nc2ccc(N3CCN(c4cccc(F)n4)CC3)cc2)cc1
Reading unit: %
Observed result: 91
//
Compound: O=C(Nc1ccc(N2CCN(c3ccccn3)CC2)cc1)c1ccc(OCCOCCF)cc1
Reading unit: %
Observed result: 99
//
Compound: Cc1ccc(C(=O)Nc2ccc(N3CCN(c4ccccn4)CC3)cn2)c(F)c1
Reading unit: %
Observed result: 95
//
Compound: COc1ccc(C(=O)Nc2ccc(N3CCN(c4cc(Cl)c(C#N)cn4)CC3)cc2)cc1
Reading unit: %
Observed result: 88
//
Compound: COc1ccc(C(=O)Nc2ccc(N3CCN(c4ncc(C#N)cn4)CC3)cc2)cc1
Reading unit: %
Observed result: 91
//
Compound: COc1ccc(C(=O)Nc2cnc(N3CCN(c4ccccn4)CC3)nc2)nc1
Reading unit: %
Observed result: 93
//
Compound: O=C(Nc1ccc(N2CCN(c3ccccn3)CC2)cc1)c1ccc(N2CCOCC2)cc1
Reading unit: %
Observed result: 86
//
Compound: CN(C)c1ccc(C(=O)Nc2ccc(N3CCN(c4ccccn4)CC3)nc2)cc1
Reading unit: %
Observed result: 98
//
Compound: COc1ccc(C(=O)Nc2ccc(N3CCN(c4ccc(C#N)cn4)CC3)cn2)cc1
Reading unit: %
Observed result: 95

* * *

target: native aSyn aggregates in A30P transgenic mouse brain sections (Homo sapiens, UniProt P37840, A30P); construct: from tissue; host or cells: brain sections (midbrain and pons as ROI) of A30P transgenic mice, line B6.D2-Tg(Thy1-SNCA*30P)31Pjk; test: aSyn in vitro displacement assay ([3H]Example-3 autoradiography); type: binding, mutant human aSyn gene); conditions: 1 μM compound; 3 nM [3H]Example-3; A30P transgenic mouse brain sections; read-out: PCT_INHIB A30P @ 1 μM (% displacement of [3H]Example-3)
Value kind: inhibition at 1 µM (%)

Compound: O=C(Nc1ccc(N2CCN(c3ccccn3)CC2)cc1)c1ccc(OCCF)cc1 [Example 118]
Reading unit: %
Observed result: 88

Compound: Cc1ccc(C(=O)Nc2ccc(N3CCN(c4nccs4)CC3)cc2)cc1 [Example 27]
Reading unit: %
Observed result: 89

Compound: N#Cc1ccc(N2CCN(c3ccc(NC(=O)c4ccc(OCCOCCF)cc4)cc3)CC2)cc1 [Example 122]
Reading unit: %
Observed result: 88

Compound: COc1ccc(C(=O)Nc2ccc(N3CCN(c4cnc(C#N)cn4)CC3)cc2)cc1 [Example 147]
Reading unit: %
Observed result: 88

Compound: CN1CCOc2cc(C(=O)Nc3ccc(N4CCN(c5ccccn5)CC4)cc3)ccc21 [Example 42]
Reading unit: %
Observed result: 91

Compound: Cc1cccc(N2CCN(c3ccc(NC(=O)c4ccc(N(C)C)cc4)cc3)CC2)n1 [Example 30]
Reading unit: %
Observed result: 91
